From: ChEMBL document CHEMBL1156901

biological target: Aminopeptidase N (Sus scrofa) (UniProt P15145); experiment: Inhibition of APN assessed as substrate hydrolysis by UV/vis spectrophotometer
Sequence (P15145 whole entry, looked up): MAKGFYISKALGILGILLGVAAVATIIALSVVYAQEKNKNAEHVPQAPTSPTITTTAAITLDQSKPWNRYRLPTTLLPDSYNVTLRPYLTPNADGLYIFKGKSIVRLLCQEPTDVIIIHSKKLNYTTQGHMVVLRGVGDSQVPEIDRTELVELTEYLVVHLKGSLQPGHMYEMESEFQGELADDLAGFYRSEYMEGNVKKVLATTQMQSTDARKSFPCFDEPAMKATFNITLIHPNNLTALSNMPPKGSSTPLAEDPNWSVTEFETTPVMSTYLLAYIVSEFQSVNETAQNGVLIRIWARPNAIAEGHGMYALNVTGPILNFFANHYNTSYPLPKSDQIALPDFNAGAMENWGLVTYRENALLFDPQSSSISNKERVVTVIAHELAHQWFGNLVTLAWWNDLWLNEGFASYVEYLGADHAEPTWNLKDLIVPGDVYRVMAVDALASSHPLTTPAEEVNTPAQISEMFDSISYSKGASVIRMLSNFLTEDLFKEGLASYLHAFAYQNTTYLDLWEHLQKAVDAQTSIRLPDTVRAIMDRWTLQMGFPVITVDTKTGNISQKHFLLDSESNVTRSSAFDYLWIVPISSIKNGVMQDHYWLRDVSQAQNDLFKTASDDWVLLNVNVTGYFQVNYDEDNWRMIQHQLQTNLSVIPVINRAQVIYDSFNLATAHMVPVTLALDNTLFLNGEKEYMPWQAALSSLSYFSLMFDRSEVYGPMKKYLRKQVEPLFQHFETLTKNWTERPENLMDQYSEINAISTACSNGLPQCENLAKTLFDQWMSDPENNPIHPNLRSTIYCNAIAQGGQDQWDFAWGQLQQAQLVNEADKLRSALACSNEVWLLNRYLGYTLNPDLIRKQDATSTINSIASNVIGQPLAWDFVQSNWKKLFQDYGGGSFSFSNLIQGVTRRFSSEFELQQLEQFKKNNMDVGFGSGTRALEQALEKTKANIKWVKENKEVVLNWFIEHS
test.readout: IC50

Solved entries (count: 4):
>>> print(df.to_string())
                                   compound  endpoint_value
0  Cc1nc2ccccc2n(CC(=O)N[C@@H](Cc2ccccc2)C(=O)Nc2ccccc2)c1=O      Not Active
1  CCCNC(=O)[C@H](Cc1ccccc1)NC(=O)Cn1c(=O)c(C)nc2ccccc21      Not Active
2  Cc1ccc(NC(=O)[C@H](Cc2ccccc2)NC(=O)Cn2c(=O)c(C)nc3ccccc32)cc1      Not Active
3  Cc1nc2ccccc2n(CC(=O)N[C@@H](Cc2ccccc2)C(=O)Nc2ccc(Cl)c(Cl)c2)c1=O      Not Active

The recorded IC50 for "Cc1nc2ccccc2n(CC(=O)N[C@@H](Cc2ccccc2)C(=O)Nc2ccc(F)c(Cl)c2)c1=O" is Not Active

The recorded IC50 for "Cc1nc2ccccc2n(CC(=O)N[C@@H](Cc2ccccc2)C(=O)Nc2ccc(Br)cc2)c1=O" is Not Active

The recorded IC50 for "COC(=O)CCCCCNC(=O)[C@H](Cc1ccccc1)NC(=O)Cn1c(=O)c(C)nc2ccccc21" is Not Active

The recorded IC50 for "COC(=O)CCCNC(=O)[C@H](Cc1ccccc1)NC(=O)Cn1c(=O)c(C)nc2ccccc21" is Not Active

The recorded IC50 for "Cc1nc2ccccc2n(CC(=O)N[C@@H](Cc2ccccc2)C(=O)NC(C)C)c1=O" is Not Active

The recorded IC50 for COC(=O)C(CC(C)C)NC(=O)[C@@H](Cc1ccccc1)NC(=O)Cn1c(=O)c(C)nc2ccccc21 (stereo not given in full) is Not Active
